biological target: UniProt:P50750; conditions: dose 100.0 nM
Description: Inhibition of CDK9 (unknown origin) using caliper substrate CTD3 at 100 nM by mobility shift assay relative to control
Everything with inhibition lower than 5% is 0 (no); everything else, including exactly 5%, is 1 (yes).

[[record]]
line_notation = "Cc1c(-c2ccnc(Nc3ccc4c(n3)N(C(C)C)[C@H](C)C(=O)N4C)n2)c(C2CC2)nn1C"
system_name = "UniProt:P50750"
assigned_class = "0 (no)"

[[record]]
line_notation = "CC(C)N1c2cc(Nc3nccc(Nc4cc(C5CC5)nn4C)n3)ccc2N(C)C(=O)[C@H]1C"
system_name = "UniProt:P50750"
assigned_class = "0 (no)"

[[record]]
line_notation = "CC(C)N1c2cc(Nc3nccc(Nc4cc(C(C)(C)C)nn4C)n3)ccc2N(C)C(=O)[C@H]1C"
system_name = "UniProt:P50750"
assigned_class = "0 (no)"

[[record]]
line_notation = "CC(C)c1n[nH]cc1-c1ccnc(Nc2ccc3c(c2)N(C(C)C)[C@H](C)C(=O)N3C)n1"
system_name = "UniProt:P50750"
assigned_class = "1 (yes)"

[[record]]
line_notation = "Cc1cnc(Nc2ccc3c(c2)N(C(C)C)[C@H](C)C(=O)N3C)nc1-c1c(C2CC2)nn(C)c1C"
system_name = "UniProt:P50750"
assigned_class = "0 (no)"

[[record]]
line_notation = "CCn1nccc1-c1ccnc(Nc2ccc3c(c2)N(C(C)C)[C@H](C)C(=O)N3C)n1"
system_name = "UniProt:P50750"
assigned_class = "0 (no)"

[[record]]
line_notation = "Cc1c(-c2ccnc(Nc3ccc4c(c3)N(C3CCCC3)[C@H](C)C(=O)N4C)n2)c(C2CC2)nn1C"
system_name = "UniProt:P50750"
assigned_class = "0 (no)"

[[record]]
line_notation = "Cc1c(-c2nc(Nc3ccc4c(c3)N(C(C)C)[C@H](C)C(=O)N4C)ncc2F)c(C2CCC2)nn1C"
system_name = "UniProt:P50750"
assigned_class = "1 (yes)"


###

# key: entry, value: inhibition
target: Cyclin-dependent kinase 9 (Homo sapiens) (UniProt P50750); conditions: dose 100.0 nM
Sequence (P50750 whole entry): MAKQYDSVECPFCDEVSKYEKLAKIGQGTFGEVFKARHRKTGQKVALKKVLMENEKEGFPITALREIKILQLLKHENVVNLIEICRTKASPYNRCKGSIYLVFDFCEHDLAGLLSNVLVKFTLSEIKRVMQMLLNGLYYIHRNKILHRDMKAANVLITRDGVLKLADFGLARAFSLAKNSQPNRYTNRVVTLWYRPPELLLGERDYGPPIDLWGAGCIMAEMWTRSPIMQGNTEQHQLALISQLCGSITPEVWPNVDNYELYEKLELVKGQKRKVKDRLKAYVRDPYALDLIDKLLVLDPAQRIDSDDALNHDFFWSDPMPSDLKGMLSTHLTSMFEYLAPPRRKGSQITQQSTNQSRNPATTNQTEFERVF
Measure Name: inhibition (%)

[[record]]
line_notation = "CC(C)N1c2cc(Nc3nccc(-c4ccnn4C)n3)ccc2N(C)C(=O)[C@H]1C"
system_name = "Cyclin-dependent kinase 9 (Homo sapiens) (UniProt P50750)"
scale_unit = "%"
measurement = -1.3

[[record]]
line_notation = "Cc1n[nH]cc1-c1ccnc(Nc2ccc3c(c2)N(C(C)C)[C@H](C)C(=O)N3C)n1"
system_name = "Cyclin-dependent kinase 9 (Homo sapiens) (UniProt P50750)"
scale_unit = "%"
measurement = 53

[[record]]
line_notation = "Cc1c(-c2ccnc(Nc3cc(F)c4c(c3)N(C(C)C)[C@H](C)C(=O)N4C)n2)c(C2CC2)nn1C"
system_name = "Cyclin-dependent kinase 9 (Homo sapiens) (UniProt P50750)"
scale_unit = "%"
measurement = -0.9

[[record]]
line_notation = "Cc1nn(C)cc1-c1ccnc(Nc2ccc3c(c2)N(C(C)C)[C@H](C)C(=O)N3C)n1"
system_name = "Cyclin-dependent kinase 9 (Homo sapiens) (UniProt P50750)"
scale_unit = "%"
measurement = 3.2

[[record]]
line_notation = "Cc1cc(Nc2ccnc(Nc3ccc4c(c3)N(C(C)C)[C@H](C)C(=O)N4C)n2)n(C)n1"
system_name = "Cyclin-dependent kinase 9 (Homo sapiens) (UniProt P50750)"
scale_unit = "%"
measurement = -0.3

[[record]]
line_notation = "CC[C@@H]1C(=O)N(C)c2ccc(Nc3ncc(F)c(-c4c(C5CC5)nn(C)c4C)n3)cc2N1C(C)C"
system_name = "Cyclin-dependent kinase 9 (Homo sapiens) (UniProt P50750)"
scale_unit = "%"
measurement = 19

[[record]]
line_notation = "CC(C)N1c2cc(Nc3nccc(-c4c[nH]nc4C4CCCCC4)n3)ccc2N(C)C(=O)[C@H]1C"
system_name = "Cyclin-dependent kinase 9 (Homo sapiens) (UniProt P50750)"
scale_unit = "%"
measurement = 56

[[record]]
line_notation = "Cc1n[nH]c(C2CCC2)c1-c1ccnc(Nc2ccc3c(c2)N(C(C)C)[C@H](C)C(=O)N3C)n1"
system_name = "Cyclin-dependent kinase 9 (Homo sapiens) (UniProt P50750)"
scale_unit = "%"
measurement = 5.9

[[record]]
line_notation = "Cc1c(-c2nc(Nc3ccc4c(c3)N(C(C)C)[C@H](C)C(=O)N4C)ncc2F)c(C2CCCC2)nn1C"
system_name = "Cyclin-dependent kinase 9 (Homo sapiens) (UniProt P50750)"
scale_unit = "%"
measurement = 8.2

